Recorded inhibition zone (IZ) values for a group of molecules are listed next.
Tested on: Bacillus subtilis
Experiment: Antibacterial activity against Bacillus subtilis MTCC 121 after 18 to 24 hrs by agar well diffusion method
Type: functional
Readout: inhibition zone (IZ) (mm)

* COc1ccc(NC(=O)c2csc(-c3c[nH]c4ccc(F)cc34)n2)cc1 | 13
* O=C(Nc1ccccc1)c1csc(-c2cn(Cc3ccc(Cl)cc3)c3ccccc23)n1 | 13
* O=C(Nc1ccc(F)cc1)c1csc(-c2c[nH]c3ccccc23)n1 | 10
* COc1cc(NC(=O)c2csc(-c3c[nH]c4ccc(Br)cc34)n2)cc(OC)c1OC | 16
* COc1cc(NC(=O)c2csc(-c3c[nH]c4ccc(F)cc34)n2)cc(OC)c1OC | 10
* COc1ccc(NC(=O)c2csc(-c3c[nH]c4ccccc34)n2)cc1OC | 14
* COc1ccc(NC(=O)c2csc(-c3c[nH]c4ccc(Br)cc34)n2)cc1 | 15
* COc1ccc(NC(=O)c2csc(-c3c[nH]c4ccccc34)n2)cc1 | 12
* O=C(O)c1cn(C2CC2)c2cc(N3CCNCC3)c(F)cc2c1=O | 24
* COc1ccc(NC(=O)c2csc(-c3cn(Cc4ccc(Cl)cc4)c4ccccc34)n2)cc1 | 15
* COc1cc(NC(=O)c2csc(-c3c[nH]c4ccccc34)n2)cc(OC)c1OC | 14
* CN(C)c1ccc(NC(=O)c2csc(-c3c[nH]c4ccccc34)n2)cc1 | 14
* COc1cc(NC(=O)c2csc(-c3cn(Cc4ccc(Cl)cc4)c4ccccc34)n2)cc(OC)c1OC | 12
* COc1ccc2[nH]cc(-c3nc(C(=O)Nc4cc(OC)c(OC)c(OC)c4)cs3)c2c1 | 14

###

System: MCF7
Assay: Cytotoxicity against human MCF7 cells by MTT assay
Assay type: functional, cell-based
pIC50: −log10 of the molar value.
Readout: pIC50

• Cc1ccc(-c2nc(C(=O)Nc3ccccc3)cs2)cc1 = 5.00

###

System: PC-3
Test: Cytotoxicity against human PC3 cells after 48 hrs by MTT assay in presence of 10% FBS
Type: functional, cell-based
Conditions: PC-3, 48 h
pIC50: −log10 of the molar value.
Measured pIC50, listed per entry for reference.
Readout: pIC50

* Cc1ccc(NC(=O)c2csc(-c3c[nH]c4ccccc34)n2)cc1 | < 4.00
* COc1ccc2[nH]cc(-c3nc(C(=O)Nc4cc(OC)c(OC)c(OC)c4)cs3)c2c1 | < 4.00
* COc1cc(NC(=O)c2csc(-c3c[nH]c4ccc(Br)cc34)n2)cc(OC)c1OC | < 4.00
* COc1cccc2c1C(=O)c1c(O)c3c(c(O)c1C2=O)C[C@@](O)(C(=O)CO)C[C@@H]3O[C@H]1C[C@H](N)[C@H](O)[C@H](C)O1 [DOXORUBICIN] | 5.01
* COc1cc(NC(=O)c2csc(-c3cn(Cc4ccc(Cl)cc4)c4ccccc34)n2)cc(OC)c1OC | < 4.00
* COc1ccc(NC(=O)c2csc(-c3c[nH]c4ccc(F)cc34)n2)cc1 | < 4.00
* O=C(Nc1ccccc1)c1csc(-c2cn(Cc3ccc(Cl)cc3)c3ccccc23)n1 | < 4.00
* COc1cc(NC(=O)c2csc(-c3c[nH]c4ccc(F)cc34)n2)cc(OC)c1OC | < 4.00
* COc1ccc(NC(=O)c2csc(-c3cn(Cc4ccc(Cl)cc4)c4ccccc34)n2)cc1 | < 4.00
* O=C(Nc1ccccc1)c1csc(-c2c[nH]c3ccccc23)n1 | < 4.00
* O=C(NCc1ccccc1)c1csc(-c2c[nH]c3ccccc23)n1 | < 4.00
